# experimental details: NCI Yeast Anticancer Drug Screen. Data for the sgs1 mgt1 strain (AID 161);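 note: 0% = growth of cultures given vehicle only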
# measurement context: S. cerevisiae sgs1 mgt1 strain, at 50.0 µM (retest, dose inferred, filed as 5.0), stronger effect = higher value
This is part of a sample that, as a whole, favours compounds with a hit. Of some 79,000 tested, about 15% had one in any assay.
Listed next: entries and their corresponding growth inhibition.
The response must be a number in % with no trailing unit.

Past entries and their recorded results:
CC1(C)CCC(C)(C)c2cc(C(=O)Nc3ccc(C(=O)O)cc3)ccc21; 99
CC(=O)N(/C=C\c1sc2ccccc2[n+]1C)c1ccccc1; 89
CC1(c2ccc(O)cc2)CC(C)(c2ccc(O)cc2)C1 (stereo not given); 91
CC(=O)Oc1cc(Cl)ccc1Cc1ccc(Cl)cc1OC(C)=O; 76
CCCCN(CCCC)CC(O)c1cc(-c2ccc(Cl)cc2)nc2c(C)cccc12 (stereo not given); 96

The value of growth inhibition measured for the compound CC(C)=CC1C(COC(=O)CCl)C1(C)C (stereo not given) turned out to be 3

The value of growth inhibition measured for the compound `CCCCN(CCCC)CCNc1ccc(NS(=O)(=O)c2ccccc2)c2sc3ccccc3c(=O)c12` turned out to be 96

The value of growth inhibition measured for the compound `COc1ccc(-c2c3c(cc4cc5c(cc24)OCO5)C(=O)OC3)cc1OC` turned out to be 96

The value of growth inhibition measured for the compound `CN(C)C1=C(Cl)C(=O)c2ccccc2C1=O` turned out to be 93

The value of growth inhibition measured for the compound `CC(C)(C)C1=CC(=CC=C2C=CN(CCO)C=C2)C=C(C(C)(C)C)C1=O` turned out to be 51

The reported measurements were obtained from PubChem BioAssay (NCI).
